src = PubChem BioAssay AID179

System: CEM cells HIV-1 protection, formazan growth assay
Assay: NCI AIDS Antiviral Assay
Items are presented alongside their recorded EC50.

Would you please look over these solved cases?
| COMPOUND | EC50 |
| --- | --- |
| O=c1nc(Oc2c(F)c(F)c(F)c(F)c2F)ccn1C1OC(CO)C(O)C1O (centres undefined) | > 200 µM |
| COc1ccc(C2S/C(=C\c3cc(OC)c(OC)c(OC)c3)C(=O)N2NC(=O)Cc2ccccc2)cc1 (centres undefined) | > 36.3 µM |
| C=C(COC(=O)CC(C)(C)CC(=O)O)[C@@H]1CC[C@]2(COC(=O)CC(C)(C)CC(=O)O)CC[C@]3(C)[C@H](CC[C@@H]4[C@@]5(C)CC[C@H](OC(=O)CC(C)(C)CC(=O)O)C(C)(C)[C@@H]5CC[C@]43C)[C@@H]12 | > 200 µM |
| O=C1C2=Cc3ccccc3CCN2c2ccccc21 | > 200 µM |
| O=C(Cc1ccccc1)NN1C(=O)/C(=C\c2ccc([N+](=O)[O-])cc2)SC1=Nc1ccccc1 | > 56.2 µM |
| c1cnc2c(c1)Sc1ncccc1S2 | > 115 µM |
| COc1ccc(/C=C/C(=O)OC/C=C/c2ccc3c(c2)OCO3)cc1OC | > 200 µM |
| CC(=O)c1ccc(C(O)C(CO)NC(=O)C(Cl)Cl)cc1 (centres undefined) | > 200 µM |

Now, please, on to the next compound.
Ask: Specify EC50 for NCCCCCC(CCN)SCC1OC(n2cnc3c(N)ncnc32)C(O)C1O (centres undefined) , system CEM cells HIV-1 protection, formazan growth assay.
Result: > 200 µM

====

Items are presented alongside their recorded pIC50.
Test system: CEM cells HIV-1 protection, formazan growth assay
Test: NCI AIDS Antiviral Assay
Details: measured here: growth of uninfected CEM cells
Reminder that pIC50 means the negative base-10 logarithm of the concentration expressed in mol/L.

| COMPOUND | READOUT_LABEL | MEASURED_RESULT |
| --- | --- | --- |
| O=C1CCCCCCCCCCC(=O)N2CCOCCOCCN1Cc1cccc(n1)C2 | pIC50 | 3.50 |
| N#C/C(=C\c1cc(Br)cc(Br)c1O)c1ccc([N+](=O)[O-])cc1 | pIC50 | 4.87 |
| O=C1NC(c2ccc(O)cc2)C2CCC1C2 (stereo unspecified) | pIC50 | 3.02 |

Now, please, on to the next compound.
Ask: Provide measured pIC50 value, entry: `Ic1ccccc1SSc1ccccc1I`
Result: 5.06

====

Tested on: CEM cells HIV-1 protection, formazan growth assay
Assay: NCI AIDS Antiviral Assay;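 active = compounds giving half or more protection of infected cells from virus-caused growth loss, again on retest; inactive = the rest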
Respond using exactly one of the listed classes: active, inactive

| COMPOUND | CATEGORY |
| --- | --- |
| Cc1cn(CCOCCOC(=O)NC(CCCNC(N)=O)C(=O)O)c(=O)[nH]c1=O (stereo not given) | inactive |
| COc1c(Cl)cc(C(=CCC[C@H]2CC[C@@]3(C)C(CC[C@@H]4C3CC[C@]3(C)C(C(C)CCCC(C)C)CCC43)C2)c2cc(Cl)c(OC)c(C(=O)O)c2)cc1C(=O)O (stereo not given in full) | active |
| CS(=O)(=O)OCCN(CCOS(C)(=O)=O)c1ccc(C=Nc2ccc3oc(=O)ccc3c2)cc1 | inactive |
| CC(=O)NC1=NC(=O)/C(=C/c2ccccc2Cl)N1C | inactive |
| COCn1c(C(=O)c2ccc(OC)cc2)cc2ccccc21 | inactive |
| CC1C2Cc3ccc(O)cc3C1(C)CCN2CC1CC1 (stereo not given) | inactive |
| C[Si](C)(C)CCOCN(C(=O)C1=CCC2(CC1)OCCO2)c1ccccc1I | inactive |
| O=C(/C=C/c1cc(O)ccc1O)OCCc1ccccc1 | active |

Ask: Recorded test call requested for `COC(=O)C(C)(C)C(OP1(=S)N(C)CCN1C)=C(C)C`
Result: inactive

Ask: Recorded test call requested for CC1CCCc2c(C#N)c(N)nc(-c3ccc(Cl)cc3)c21 (stereo not given)
Result: inactive

====

Test system: CEM cells HIV-1 protection, formazan growth assay
Assay: NCI AIDS Antiviral Assay
Settings: measured here: growth of uninfected CEM cells
READOUT_LABEL: pIC50
Reminder that pIC50 means the negative base-10 logarithm of the concentration expressed in mol/L.

Would you please look over these solved cases?
| COMPOUND | STUDY_SYSTEM | READOUT_LABEL | MEASURED_RESULT |
| --- | --- | --- | --- |
| c1ccc(COCC23CCN(Cc4ccccc4)C(CC(OCc4ccccc4)C2)S3)cc1 (stereo unspecified) | CEM cells HIV-1 protection, formazan growth assay | pIC50 | 4.34 |
| CN(C)C1C(=O)C(C(=O)NCNC(CO)(CO)CO)=C(O)C2(O)C(=O)C3=C(O)c4c(O)cccc4C(C)(O)C3CC12 (stereo unspecified) | CEM cells HIV-1 protection, formazan growth assay | pIC50 | 3.88 |
| CCOC(=O)CC(SP1(=S)OCC2(CC=CCC2)CO1)C(=O)OCC (stereo unspecified) | CEM cells HIV-1 protection, formazan growth assay | pIC50 | 4.03 |
| CCN=C(NC(=O)c1c(Cl)cccc1Cl)SCSC(=NCC)NC(=O)c1c(Cl)cccc1Cl | CEM cells HIV-1 protection, formazan growth assay | pIC50 | 3.77 |
| COc1cc([C@@H]2c3cc4c(c(O)c3C[C@H]3COC(=O)[C@@H]32)OCO4)cc(OC)c1OC | CEM cells HIV-1 protection, formazan growth assay | pIC50 | 8.51 |

Ask: Provide measured pIC50 value, entry: CCCc1cc(=O)oc2c3c(cc(OC(C)CC)c12)O[C@H](C)[C@@H](C)C3=O (stereo partly specified)
Result: 4.85

Ask: Provide measured pIC50 value, entry: `O=C(NC1CCCCC1)/C(=C\c1ccc(/C=C(/NC(=O)c2ccccc2)C(=O)NC2CCCCC2)cc1)NC(=O)c1ccccc1`
Result: 3.92

Ask: Provide measured pIC50 value, entry: `N=C(N)c1ccc(N=Nc2ccc(N)cc2N)cc1`
Result: 4.29

Ask: Provide measured pIC50 value, entry: N#CC(C(=O)/C(=N/NC(=O)c1ccccc1O)C(C#N)c1ccccc1)c1ccccc1 (stereo unspecified)
Result: 4.97

Ask: Provide measured pIC50 value, entry: `CC(C)=CCN1Cc2c(Cl)ccc3[nH]c(=S)n(c23)C[C@@H]1C`
Result: 5.23

====

Tested on: CEM cells HIV-1 protection, formazan growth assay
Assay: NCI AIDS Antiviral Assay
Settings: measured here: growth of uninfected CEM cells
READOUT_LABEL: IC50

Would you please look over these solved cases?
| COMPOUND | READOUT_LABEL | MEASURED_RESULT |
| --- | --- | --- |
| CN1C(=O)C(C)(O)Sc2ccccc21 (configuration not stated) | IC50 | 501 µM |
| CCOC(=O)c1sc(SC)nc1NC(=O)c1ccc([N+](=O)[O-])cc1 | IC50 | > 200 µM |
| COc1ccc(/C=N/N/C(O)=c2/sc(=C(C#N)C#N)n(-c3ccccc3)c2=N)cc1 | IC50 | > 9.12 µM |
| CSc1nnc(COc2ccc(Cl)cc2)o1 | IC50 | > 263 µM |
| N#Cc1cccc(CSc2ncnc3nc[nH]c23)c1 | IC50 | 81.3 µM |

Ask: Provide measured IC50 value, entry: `Cc1c(C)c2c(c3c1OC(C)(C)CC3)CCC(C)(C)O2`
Result: 74.1 µM

Ask: Provide measured IC50 value, entry: `C1CSC[C@H]2COC[C@@H](CSCCS1)S2`
Result: > 631 µM

====

Tested on: CEM cells HIV-1 protection, formazan growth assay
Assay: NCI AIDS Antiviral Assay
READOUT_LABEL: EC50

| MOLECULE | EC50 |
| --- | --- |
| N#Cc1ccccc1-c1nc2c3c(c(N)ccc3n1)C(=O)c1ccccc1-2 | > 200 µM |

Ask: Provide measured EC50 value, entry: `COc1cccc(/C=N/[N-]C(N)=O)c1[O-].[Cu+2].[OH3+].c1cnc2c(c1)ccc1cccnc12`
Result: > 39.8 µM

Ask: Provide measured EC50 value, entry: `COc1ccc([N+](=O)[O-])c2c(NCCCN(C)C)ccnc12`
Result: > 200 µM

Ask: Provide measured EC50 value, entry: CC(=O)c1c2c(cc3c1CC1(C3)Cc3cc4c(c(C(=O)O)c3C1)CCCC4)CCCC2 (centres undefined) (tested in a mixture with another compound)
Result: > 200 µM

====

Items are presented alongside their recorded IC50.
System: CEM cells HIV-1 protection, formazan growth assay
Assay: NCI AIDS Antiviral Assay
Details: measured here: growth of uninfected CEM cells

Would you please look over these solved cases?
| COMPOUND | READOUT_LABEL | MEASURED_RESULT |
| --- | --- | --- |
| N#Cc1ncoc1N | IC50 | > 200 µM |
| O=c1[nH]n(Cc2ccccc2Cl)c2ccc([N+](=O)[O-])cc12 | IC50 | 69.2 µM |
| Cc1sc(Nc2ccccc2[N+](=O)[O-])c(C#N)c1C | IC50 | > 200 µM |
| COC[C@H](C)N=CN1CCc2ccccc2C1 | IC50 | > 1070 µM |
| CC(=O)OCC1(C)ON=C2CCCCC21 (configuration not stated) | IC50 | > 1170 µM |

Ask: Provide measured IC50 value, entry: `Cc1cn(CC2=NCC(C)(C)CN2)c(=O)[nH]c1=O`
Result: > 200 µM

Ask: Provide measured IC50 value, entry: `COc1ccccc1NCc1cccc2c(=O)c3ccc(Cl)cc3oc12`
Result: 46.8 µM
